System: RXRa homodimer (NR concentration 180 nM)
Test: PBM binding z-score (relative to random genomic background probes); higher = stronger binding; sequences stand for … in GC…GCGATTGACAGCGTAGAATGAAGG
property_name: PBM binding z-score
Numbers only.

                     primary_sequence  recorded_result
0  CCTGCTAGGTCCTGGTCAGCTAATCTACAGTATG           -0.298
1  TAGCCTTGGTCATGGGCCAGTATACCACGCGAAC            0.297
2  AGAACGAGGGCATTGAGTTGATAGCACGGGTGGC             1.04
3  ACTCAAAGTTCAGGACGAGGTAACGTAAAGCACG             3.39
4  GCGACTGGGGCATCAGCAGTTTACCATAACTTAA           0.0851

[in] // PBM binding z-score lookup, key: TGATATAGGTAAACAGGTGAAAGTCCGTAAGTTA
[out] 0.613

====

System: PPARg:RXRa IVT, anti-PPARg (NR concentration 270 nM, RXRa partner concentration 90 nM)
Assay: PBM binding z-score (relative to random genomic background probes); higher = stronger binding; sequences stand for … in GC…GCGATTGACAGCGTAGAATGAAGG
property_name: PBM binding z-score
Give bare numbers.

>>> print(df.to_string())
                     primary_sequence                               measured_on  recorded_result
0  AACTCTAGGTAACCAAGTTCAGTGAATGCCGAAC  PPARg:RXRa IVT, anti-PPARg (NR concentration 270 nM, RXRa partner concentration 90 nM)             2.39

Please state PBM binding z-score for every sequence in the list that follows.
1. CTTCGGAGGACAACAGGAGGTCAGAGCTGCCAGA
2. CCTATTAGTTAACCATAAGGGCAACCGAAGCTCG
3. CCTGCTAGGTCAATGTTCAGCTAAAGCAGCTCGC
4. CCAGACAGGTGAGAAGGTAACTCACCCTCGATTA
5. ATCGCTAGGTAAAAGTTCAGTGAATCCCGAGGAT
6. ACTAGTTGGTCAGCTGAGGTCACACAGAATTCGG
7. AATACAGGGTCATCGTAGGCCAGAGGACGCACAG
8. TCATATAGGTAAATGCTAAGTGAAAGTCCGATCT

[out]
1: 0.767; 2: 0.65; 3: 3.55; 4: 0.707; 5: 1.63; 6: 3.02; 7: 4.1; 8: 2.11

Please state PBM binding z-score for every sequence in the list that follows.
1. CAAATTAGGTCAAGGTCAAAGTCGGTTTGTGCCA
2. CCAGACAGGTGAAAGGTACCTCAGTCTGGTACGC
3. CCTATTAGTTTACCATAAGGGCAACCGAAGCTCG

[out]
8.52
1.96
0.459

====

I'd appreciate it if you could supply PBM binding z-score values for the items below.
Test system: RARb homodimer (NR concentration 270 nM)
Experiment: PBM binding z-score (relative to random genomic background probes); higher = stronger binding; sequences stand for … in GC…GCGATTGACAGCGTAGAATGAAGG
Give bare numbers.

Below, each entry is followed by its recorded PBM binding z-score result.
In [3]: df
Out[3]:
                     primary_sequence  recorded_result
0  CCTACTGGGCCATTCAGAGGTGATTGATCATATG            0.207
1  CGAACTAGGTCATCCAGAACAGTGAATACATTGA              2.8
2  TCTTGTAGATCTACAGGAGGTTAAGAAAGATCGA          -0.0502
3  CGTCAAAGTTCAACTAAGGTAAGGTAAAGCACGC             3.92
4  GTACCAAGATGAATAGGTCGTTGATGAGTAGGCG            0.283

Consider the record given below.
[in] Could you share what PBM binding z-score was measured for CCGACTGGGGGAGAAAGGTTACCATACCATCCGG , tested on RARb homodimer (NR concentration 270 nM)?
[out] 2.12
